# Method description: in vitro
# Experimental parameters: human, hela cells, % viability
Some compounds, each annotated with its measured viability at 28.5 h, 10 µM.
Put your answer as a value accompanied by its unit after it.

CCn1cc(C(=O)N2CCC(Oc3ccccc3C)(C(=O)O)CC2)cn1	118%
Cc1ccc2c(c1)OC1(CCN(C(=O)c3cc4c(C)nn(C)c4s3)CC1)CC2=O	79.5%
CCC(=O)Nc1nc(-c2ccc(OC)cc2)cs1	85.7%
COc1ccc(/C=N/NC(=O)Cc2cccn2C)cc1[N+](=O)[O-]	99.1%
Cc1ccc(C)c(C(NC(=O)CCCn2ccnc2)c2ccncc2)c1 (stereo not shown)	96.1%
O=c1nc2n(Cc3ccccc3)c3ccccc3cc-2c(=O)[nH]1	79.8%
Cc1nc(C2CCN(C(=O)c3ccnn3C)CC2)c2sccn12	90.3%
Nc1nc(=O)c2cnc3ccc(F)cc3c2s1	111%

[in] Fill in the blank: the reported viability at 28.5 h, 10 µM of CC12CN(Cc3ccccc3)CC1NC(=O)c1ccccc1C2N (stereo not shown) is ____.
[out] 99.5%

[in] viability at 28.5 h, 10 µM lookup needed for `Cc1nc(N)c(CNC2CCCCC2)c(O)n1` , thanks.
[out] 112%

###

# Method description: in vitro
# Experimental parameters: human, hela cells, % viability
Quantity kind: viability at 28.5 h, 10 µM (%)
Reply numerically in %, unit not repeated.

[in] viability at 28.5 h, 10 µM for Fc1ccccc1-c1nccnc1NCc1ccncc1 [CBK037540] ?
[out] 101

###

Measured viability at 28.5 h, 10 µM, listed per entry for reference.
# Method description: in vitro
# Experimental parameters: human, hela cells, % viability
Output spec: scalar in %, unitless text.

Guide cases for viability at 28.5 h, 10 µM, answers given:
Cc1ccc(CN2CCC(N3C(=O)NC4(CCN(CC(C)C)CC4)C3=O)CC2)cc1C [CBK285822]	96.9
Cc1cccc2cnc(C3CCN(C(=O)CCc4ccno4)CC3)cc12 [CBK285197]	81
CCCCNC(=S)N[C@H]1CC[C@@]2(Cc3ccc(OC)cc3)CCN(C)[C@H]2C1 [CBK004258]	108
COC(=O)C1C(=O)Oc2ccc3ccccc3c2C1C(C)C(=O)c1ccc(Br)cc1 (centres unmarked) [CBK266126]	114
CCCC12CN3CC(CCC)(CN(C1)C3c1ccc(O)c(OC)c1)C2=O (centres unmarked) [CBK265531]	89

[in] Can you share its viability at 28.5 h, 10 µM? I mean this compound: O=C(NC(c1ccccc1)c1cccnc1)C1CCN(C(=O)CN2C(=O)c3ccccc3C2=O)CC1 (centres unmarked) [CBK060515]
[out] 108

[in] Record request: viability at 28.5 h, 10 µM value, item O=[N+]([O-])c1ccc(S(=O)(=O)Nc2cccc3[nH]ccc23)cc1 [CBK159550]
[out] 87.1

[in] Look up viability at 28.5 h, 10 µM for this compound: O=C(Nc1ccncc1)c1ccc(CNS(=O)(=O)c2cccc(C(F)(F)F)c2)cc1 [CBK267181]
[out] 88.5

###

Reported viability at 28.5 h, 10 µM by item:
# Method description: in vitro
# Experimental parameters: human, hela cells, % viability
// units = %; emit number, no label

C=Cn1cc(CN2CCN(C3CCCCC3)C(=O)C2)c(C)n1 [CBK282561]	109
CN1CCC(N2CCN(C(=O)NCC(c3ccccc3)c3ccccc3)CC2)CC1 [CBK156096]	92.5
Cc1nc2c(c(=O)[nH]1)CCN(Cc1cccc(Oc3ccccc3)c1)C2 [CBK283989]	81.9
CC(=O)N1CCN(c2ccc(NC(=O)C3C(C(=O)O)C3(C)C)cc2)CC1 (stereo not shown) [CBK300545]	88.6
CC1CCN(S(=O)(=O)c2ccc(NC(=O)CN3CCOCC3)cc2)CC1 [CBK268339]	81.4

[in] Need viability at 28.5 h, 10 µM of Cc1ccccc1-c1cc(C(=O)N(C)C)c2cnn(C(C)C)c2n1 [CBK306245] , thanks.
[out] 98.6

[in] Need viability at 28.5 h, 10 µM of Cn1c(SCCOc2ccccc2Cl)nnc1-c1ccncc1 [CBK265969] , thanks.
[out] 111

[in] # get_value(readout='viability at 28.5 h, 10 µM', item= Cc1cc(C2CCCCCN2C(=O)c2c(Cl)cnn2C)on1 (stereo not shown) [CBK283045] )
[out] 108

[in] Which measured viability at 28.5 h, 10 µM value corresponds to Cc1nccnc1N1CCC2(CCCN(CC3CCC3)C2=O)C1 (stereo not shown) [CBK306806] ?
[out] 103

[in] Return reported viability at 28.5 h, 10 µM; argument: CC1(C)CCCN(Cc2nnnn2-c2ccc(S(C)(=O)=O)cc2)C1 [CBK306181]
[out] 91.7

[in] Sample COc1ccc(CN(CCN(C)C)C(=O)NCc2ccc(-c3ccccc3)cc2)cc1OC [CBK159293] — what was its viability at 28.5 h, 10 µM?
[out] 91.4

[in] Record request: viability at 28.5 h, 10 µM value, item CC(C)S(=O)(=O)N1C[C@@H](c2ccccc2)[C@H]2[C@H]1CCCCCN2C [CBK283083]
[out] 91.1

[in] Value lookup for viability at 28.5 h, 10 µM; key = CC(C)(CNC(=O)Cn1cnc2ccccc21)N1CCCCC1 [CBK281879]
[out] 95.8

###

Catalogue of activity at 10 µM values
# Tested on: C. trachomatis L2/434/Bu expressing GFP (CTL2-GFP)
# Construct: L2/434/Bu GFP intracellular growth in HeLa cells
# Method description: microbe, parasite or virus in culture
# Set-up: C. trachomatis total inclusion area by high-content imaging, normalised to DMSO
# Experimental parameters: Chlamydia trachomatis, HeLa, 28.5 h; total inclusion area; read-out: % of control remaining

COc1cc(/C=N/c2cccc3c(/N=C/c4ccc(O)c(OC)c4)cccc23)ccc1O [CBK261224]	40.8%
NC(Cc1ccccc1)CN(CC1(c2ccc(Cl)cc2)CC1)C(=O)Nc1ccc2c(c1)OCO2 (stereo not drawn) [CBK002342C]	54%
COc1c(Br)cc2c(cc(C)n2-c2ccccc2)c1OCC(O)CNC(C)C (stereo not drawn) [CBK263516]	0.887%

[in] Using the record for O=C(CSc1nnc(-c2cccnc2)o1)c1ccccc1 [CBK068446] , report its activity at 10 µM.
[out] 6.22%

[in] Any idea what its activity at 10 µM is? The compound is O=C(Nc1ncc(-c2ccccc2)s1)c1cccc([N+](=O)[O-])c1 [CBK157055]
[out] 56.9%

###

# Method description: in vitro
# Experimental parameters: human, hela cells, % viability
Some compounds, each annotated with its measured viability at 28.5 h, 10 µM.
Please reply with the bare figure in % and do not write the unit itself.

# annotated cases, reported viability at 28.5 h, 10 µM shown
Cc1cc(/C=C(/C#N)c2ccc(C(=O)O)cc2)c(C)n1-c1ccc(S(N)(=O)=O)cc1	116
Clc1ccc(SCc2cccc(CSc3ccc(Cl)c(Cl)c3)n2)cc1Cl	86.3
N#Cc1c(NC(=O)CSc2nnc3c(n2)[nH]c2ccccc23)sc2c1CCCC2	93
COc1cc(CNc2cc(C(=O)O)ccc2C)cc(Br)c1OC	95.3
COc1cc(NC(=O)N2CCN(c3cc(C(F)(F)F)ccn3)CC2)cc(OC)c1OC	95.2
O=C(CN1CCOCC1)Nc1ccc(NC(=O)CN2CCOCC2)c(Cl)c1	112
Cc1ccc(C2CCCN2C(=O)c2ccc(=O)n(CC(=O)N(C)c3ccccc3)c2)cc1C (centres unmarked)	107
CCN(CC)C(=O)Cn1c([C@@H]2CCCO2)cc2cccnc21	105

[in] Can you share its viability at 28.5 h, 10 µM? I mean this compound: `COc1ccc(-c2cncc(NCc3ccncc3)n2)cc1`
[out] 111

[in] Give the measured viability at 28.5 h, 10 µM of `Cn1c(=O)c2c(nc(CN3CCOCC3)n2CC(=O)c2ccccc2)n(C)c1=O` .
[out] 93.2

[in] For the compound `Cc1cccc(-n2nc3c4nonc4ccc3[n+]2[O-])c1C` , what viability at 28.5 h, 10 µM is on record?
[out] 93.6

[in] // lookup viability at 28.5 h, 10 µM for `COc1ccc(/C=N/Nc2nc(OC)nc(N3CCOCC3)n2)cc1`
[out] 91.6

[in] Can you look up the measured viability at 28.5 h, 10 µM of `O=C(Nc1cc2cccnc2nc1Cl)c1ccc(C(F)(F)F)cc1[N+](=O)[O-]` for me?
[out] 89.9

[in] # get_value(readout='viability at 28.5 h, 10 µM', item= O=C(NC1CCN(Cc2ccccc2)C1)c1ccc(F)cc1 (centres unmarked) )
[out] 97.8

[in] Given the compound CN1CCC2(CCC1=O)CC(NC(=O)C1CC1)c1ccccc1O2 (centres unmarked) , what is its reported viability at 28.5 h, 10 µM?
[out] 93.3

[in] What viability at 28.5 h, 10 µM value was documented for this compound, `COc1cc(/C=N/NC(=O)CC#N)ccc1OCc1ccccc1Cl` ?
[out] 84.9

[in] # input compound: Cc1cn2c3c(=O)n(CCN4CCOCC4)c(=O)n(C)c3nc2n1CC1CCCO1 (centres unmarked) ; wanted: its viability at 28.5 h, 10 µM
[out] 92.3

[in] Query (compound): `O=C(NCCN1CCCC1)c1ccc2nc[nH]c2c1` ; field requested: viability at 28.5 h, 10 µM
[out] 86

[in] Which viability at 28.5 h, 10 µM reading was recorded for the compound `c1cn2cnnc2c(N2CCc3sccc3C2)n1` ?
[out] 96.6

[in] Reported viability at 28.5 h, 10 µM for `Cc1ccc2[nH]c3c(c2c1)CCOC31CCN(CCOc2cccc3c2CCCC3=O)CC1` : what is it?
[out] 83.3

[in] // query viability at 28.5 h, 10 µM value for entry `Cn1ncc(Nc2ccccc2)c1C(=O)O`
[out] 114

[in] Tell me the measured viability at 28.5 h, 10 µM of `O=C(N/N=C/c1ccc(C(=O)O)cc1)C(=O)Nc1cccc(Br)c1` , please.
[out] 88.6

[in] Quick one: viability at 28.5 h, 10 µM of `CS(=O)(=O)NCC(=O)N1CCC2(CCCCOc3ccccc3C(=O)NCCNC2=O)CC1` ?
[out] 112

[in] What value of measured viability at 28.5 h, 10 µM is listed for O=c1c2cccnc2nc(SCCO)n1CC1CCCO1 (centres unmarked) ?
[out] 80.3

[in] Tell me the measured viability at 28.5 h, 10 µM of `CCc1nnc(SCC(=O)Nc2cc(OC)ccc2OC)[nH]1` , please.
[out] 85.1

[in] Form field: reported viability at 28.5 h, 10 µM of CCN(CC)C(=O)CN1CCC(Oc2cncc(OCC3COc4ccccc4O3)n2)C1 (centres unmarked)
[out] 102
